# Tested on: P. falciparum strains
# Test: 3H hypoxanthine incorporation assay of P. falciparum strains in human red blood cells
# Type: cell-based, Plasmodium falciparum
# Particulars: Plasmodium falciparum, DD2, Erythrocyte, parasite line Dd2; read-out: EC50
pEC50: −log10 of the molar value.

>  <Compound>
C[C@H]1[C@@H](O)O[C@@H]2O[C@@]3(C)CC[C@H]4[C@H](C)CC[C@@H]1[C@@]24OO3 [Dihydroartemisinin, dihydroartemisinin]

>  <pEC50>
9.85

$$$$

----------
# Tested on: P. falciparum strains
# Test: 3H hypoxanthine incorporation assay of P. falciparum strains in human red blood cells
# Assay type: cell-based, Plasmodium falciparum
# Particulars: parasite line 3D7; listed as Dihydroartemisinin (DHA); read-out: EC50
Assay endpoint: EC50 (nM)

>  <Compound>
C[C@H]1[C@@H](O)O[C@@H]2O[C@@]3(C)CC[C@H]4[C@H](C)CC[C@@H]1[C@@]24OO3 [Dihydroartemisinin, dihydroartemisinin]

>  <Assay target>
P. falciparum strains

>  <Measured number>
0.11

$$$$
